# assay comment: Pharmacokinetics and oral bioavailability in C3H mice, plasma levels by LC-MS
# Type: in vivo
# assay context: C3H, mouse, plasma, po, 10 mg/kg
Documented bioavailability across a set of compounds

NC(=S)n1nc(-c2ccc([N+](=O)[O-])cc2)c(CCc2cccc(Cl)c2)c1O: 53 to 85%

What bioavailability value was documented for this compound, `NC(=S)n1nc(-c2ccc([N+](=O)[O-])cc2)c(Cc2cccc(Cl)c2)c1O` ?
57 to 100%

###

# assay comment: Pharmacokinetics and oral bioavailability in C3H mice, plasma levels by LC-MS
# Assay type: in vivo
# assay context: C3H, mouse, plasma, iv, 2 mg/kg
measurement type: Vd (L/kg)
Give just the numeric value; L/kg need not be written.

NC(=S)n1nc(-c2ccc([N+](=O)[O-])cc2)c(Cc2cccc(Cl)c2)c1O [Compound 4]: 0.95

Return reported Vd; argument: NC(=S)n1nc(-c2ccc([N+](=O)[O-])cc2)c(CCc2cccc(Cl)c2)c1O [Compound 2]
0.91

###

# assay comment: Pharmacokinetics and oral bioavailability in C3H mice, plasma levels by LC-MS
# Format: in vivo
# assay context: C3H, mouse, plasma, iv, 2 mg/kg
measurement type: half-life (h)
Reply numerically in h, unit not repeated.

Return reported half-life; argument: NC(=S)n1nc(-c2ccc([N+](=O)[O-])cc2)c(CCc2cccc(Cl)c2)c1O [Compound 2]
2.7

###

# assay comment: Pharmacokinetics and oral bioavailability in C3H mice, plasma levels by LC-MS
# Format: in vivo
# assay context: C3H, mouse, plasma, iv, 2 mg/kg
measurement type: clearance (mL/min/kg)
# value in mL/min/kg; strip the unit string

NC(=S)n1nc(-c2ccc([N+](=O)[O-])cc2)c(CCc2cccc(Cl)c2)c1O: 15.5

Field: next compound
Query (compound): `NC(=S)n1nc(-c2ccc([N+](=O)[O-])cc2)c(Cc2cccc(Cl)c2)c1O` ; field requested: clearance
11.2

###

# assay comment: Pharmacokinetics and oral bioavailability in C3H mice, plasma levels by LC-MS
# Type: in vivo
# assay context: C3H, mouse, plasma, iv, 2 mg/kg
measurement type: Cmax (ng/mL)
Kindly provide the numeric value in ng/mL only, without the unit symbol.

NC(=S)n1nc(-c2ccc([N+](=O)[O-])cc2)c(Cc2cccc(Cl)c2)c1O [Compound 4]: 3880

Now look at this one.
What measured Cmax goes with NC(=S)n1nc(-c2ccc([N+](=O)[O-])cc2)c(CCc2cccc(Cl)c2)c1O [Compound 2] ?
11200
